tested on: PPARg DBDmut IVT, anti-PPARg (DBD mutation: PPARg1 K132A/R137A, NR concentration 270 nM); experiment: PBM binding z-score (relative to random genomic background probes); higher = stronger binding; sequences stand for … in GC…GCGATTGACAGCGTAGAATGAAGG
Threshold rule: PBM binding z-score greater than or equal to -0.6 is yes (1); below that, no (0).

> print(dat)
                        sequence.text                          target.or.system  label.value
1  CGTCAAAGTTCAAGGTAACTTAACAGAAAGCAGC  PPARg DBDmut IVT, anti-PPARg (DBD mutation: PPARg1 K132A/R137A, NR concentration 270 nM)      yes (1)
2  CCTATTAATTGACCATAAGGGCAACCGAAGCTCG  PPARg DBDmut IVT, anti-PPARg (DBD mutation: PPARg1 K132A/R137A, NR concentration 270 nM)      yes (1)
3  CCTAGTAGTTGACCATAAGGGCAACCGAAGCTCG  PPARg DBDmut IVT, anti-PPARg (DBD mutation: PPARg1 K132A/R137A, NR concentration 270 nM)      yes (1)
4  GCGACTGGGGCAGAGCAGGTTACCATAAGGTTGG  PPARg DBDmut IVT, anti-PPARg (DBD mutation: PPARg1 K132A/R137A, NR concentration 270 nM)       no (0)
5  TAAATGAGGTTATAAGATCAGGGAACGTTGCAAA  PPARg DBDmut IVT, anti-PPARg (DBD mutation: PPARg1 K132A/R137A, NR concentration 270 nM)      yes (1)
